Measured values drawn from the NIST ThermoML archive (doi:10.1016/j.jct.2011.12.005) for this set.

Experiment: Molar enthalpy of transition or fusion
Conditions: Crystal; DSC
measured_quantity: Molar enthalpy of transition or fusion (kcal/mol)

compound | measured_quantity | scale_unit | experimental_value
COc1cc(C(=O)O)ccc1O [4-hydroxy-3-methoxybenzoic acid] | Molar enthalpy of transition or fusion | kcal/mol | 6.96
COc1cc(C=CC(=O)O)ccc1O [4-hydroxy-3-methoxycinnamic acid] | Molar enthalpy of transition or fusion | kcal/mol | 7.62
Cn1c(=O)c2c(ncn2C)n(C)c1=O | Molar enthalpy of transition or fusion | kcal/mol | 4.28
Cc1ccc(C(C)C)c(O)c1 | Molar enthalpy of transition or fusion | kcal/mol | 4.16

====

Conditions: Crystal; DTA
This listing pairs molecules with measured Normal melting temperature.
measured_quantity: Normal melting temperature (°C)

molecule | experimental_value
Cc1ccc(C(C)C)c(O)c1 | 49
Cn1c(=O)c2c(ncn2C)n(C)c1=O | 232.2
COc1cc(C(=O)O)ccc1O [4-hydroxy-3-methoxybenzoic acid] | 207.6
COc1cc(C=CC(=O)O)ccc1O [4-hydroxy-3-methoxycinnamic acid] | 171.8
